# assay info: compounds altering HSF1 focus formation in cells – imaging, Selleck Cancer Library (AID 1347162)
# condition label: human cells, HSF1 nuclear foci imaging, at 10 µM
Activity calls are given as the source filed them. Cut-off read from the data, not from the text of the source: active = plate-normalised HSF1 focus index below about 0.46; inactive = the rest.
I would appreciate it if you answered using one of these outcomes: active, inactive

# compound, category label
data = [
    ("CCc1cc(Nc2nccc(-c3c(-c4ccc(OC)c(C(=O)Nc5c(F)cccc5F)c4)nc4ccccn34)n2)c(OC)cc1N1CCC(N2CCN(S(C)(=O)=O)CC2)CC1", "inactive"),
    ("COc1cc2nc(N3CCCN(C)CC3)nc(NC3CCN(Cc4ccccc4)CC3)c2cc1OC", "inactive"),
    ("CC1(O)CC(c2nc(-c3ccc4ccc(-c5ccccc5)nc4c3)c3c(N)nccn23)C1 (centres undefined)", "inactive"),
    ("Nc1nc(OCc2cc(Br)cs2)c2[nH]cnc2n1", "inactive"),
    ("CC1(C)CNc2cc(NC(=O)c3cccnc3NCc3ccncc3)ccc21", "inactive"),
    ("CC(C)(C)OC(=O)Nc1ccc(-c2cc(C(=O)NCCCCCCC(=O)NO)no2)cc1", "inactive"),
]

We now examine a further compound.
[Q] Can you look up the reported call for `CCc1cncnc1N1CCN(Cc2nc3ccc(C(F)(F)F)cc3[nH]2)CC1` for me?
[A] inactive
